Just for reference, patent US20230090014A1 is where these values come from.

koff reference
target: T1, CD47(19-136)-hFc (human, biotin-labelled in the Octet assay of Example 8 (sites not given)); test: BLI (Fortebio Octet RED96), biotinylated CD47-hFc on SA sensor, antibody in solution
T1 construct: tied by name; also called CD47-hFc; CD47-hFc-Biotin
T1 sequence (chain, as listed by the source limits assumed): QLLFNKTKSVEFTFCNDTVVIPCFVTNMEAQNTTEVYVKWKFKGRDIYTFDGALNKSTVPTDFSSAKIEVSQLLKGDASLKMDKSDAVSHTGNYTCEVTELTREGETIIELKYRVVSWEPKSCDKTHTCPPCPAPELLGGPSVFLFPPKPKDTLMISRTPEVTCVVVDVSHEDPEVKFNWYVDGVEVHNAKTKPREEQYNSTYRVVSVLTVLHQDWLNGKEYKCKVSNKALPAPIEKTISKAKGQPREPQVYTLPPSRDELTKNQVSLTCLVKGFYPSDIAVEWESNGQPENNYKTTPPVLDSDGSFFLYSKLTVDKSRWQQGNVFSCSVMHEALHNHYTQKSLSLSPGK

binder: Hu26T-31-PE (antibody, IgG4, V domains shown, also called humanized anti-CD47 antibody Hu26T-31-PE) VH: QVQLVQSGAEVKKPGASVKVSCKASGYTFTDYYMNWVRQAPGQGLEWIGRIYPGSGLTYYNAKFKGRATVTADKSTSTVYMELSSLRSEDTAVYYCARTSYGSSFPHVWGQGTTVTVSS VL: DIQMTQSPSSLSASVGDRVTITCKSSQSLLNVNDQKNYLAWYQQKPGKAPKLLIYFASTRESGVPSRFSGSGSGTDFTLTISSLQPEDFATYYCQQHYSTPLTFGQGTKLEIK
koff / s⁻¹: 6.13e-05

binder: AB6.12-IgG4P (antibody, V domains shown, Anti-CD47 control antibody from WO2013/119714; also called AB06.12-4P; AB06.12-P) VH: QMQLVQSGAEVKKTGSSVKVSCKASGFNIKDYYLHWVRQAPGQALEWMGWIDPDQGDTEYAQKFQDRVTITRDRSMSTAYMELSSLRSEDTAMYYCNAAYGSSSYPMDYWGQGTTVTVSS VL: NIQMTQSPSAMSASVGDRVTITCKASQDIHRYLSWFQQKPGKVPKHLIYRANRLVSGVPSRFSGSGSGTEFTLTISSLQPEDFATYYCLQYDEFPYTFGGGTKVEIKR
koff / s⁻¹: 0.000485

binder: Hu58A-14-PE (antibody, IgG4, V domains shown, also called humanized anti-CD47 antibody Hu58A-14-PE) VH: EVQLLESGGGLVQPGGSLRLSCAASGFIFSRFGMAWVRQTPDKRLEWVATISSGGSYTYYPDSVKGRLTISRDNAKTTLYLQMRSLKSEDTAMYYCARQGLLDYLYALDYWGQGTAVTVSS VL: DIQMTQSPSSVSASIGDRVTITCKASQDINSFLAWFQQKPGKSPRPLIYRAYRLVDGVPSRFSGVGSGQDYSLTISSLDYEDLGIYYCQQYVEFPPTFGAGTMLELK
koff / s⁻¹: 0.000168

binder: Hu34-39-PE (antibody, IgG4, V domains shown, also called humanized anti-CD47 antibody Hu34-39-PE) VH: QVQLQESGPGLVKPSQTLSLTCKASGYTFTNYWITWVKQRPGQGLEWIGDITPGRGETNYNQKFKGRVTLTVDISASTAYMELSSLRSEDTAVYYCSRWGLRRGDYWGQGTSVTVSS VL: EIVLTQSPGTLSLSPGERATLSCRASSSVSSSYLNWYQQKSGASPKLWIYSTSNLASGVPGRFSGSGSGTSYSLTISSVEAEDAATYYCQQYSGYPLTFGAGTKLEVK
koff / s⁻¹: 0.000758
